# System: UACC-62
# experiment: NCI tumour cell line growth inhibition, 48 h
Active and inactive are the calls of the source. No stated cut-off is given here; in the data, active = GI50 up to about 1.1 µM and inactive = higher.
The following compounds are shown together with reported GI50 values.

The examples below pair each entry with its known result.
O=C(NC/C=C/Br)NC1CCNc2ccccc21 (stereo unspecified) :: 31.3 µM (inactive)
CSCCCN(CCCSC)CCCSC :: 97.5 µM (inactive)
COCCOC1=CC(=O)c2c(O)ccc(O)c2C1=O :: 1.85 µM (inactive)
CC1C(c2ccc3c(c2)OCO3)c2cc3c(cc2OC1N1CCCCC1)OCO3 (stereo unspecified) :: 88.9 µM (inactive)
O=P(O)(Cc1ccccc1)OCC1(O)OCC(O)C(O)C1O (stereo unspecified) :: > 10 µM (inactive)

Continue with the next compound.
Query string: Find the recorded GI50 belonging to Brc1ccc(/C=N/C23CC4CC(CC(C4)C2)C3)cc1 and report it.
Result string: > 100 µM (inactive)

====

# System: DMS-273
# experiment: NCI tumour cell line growth inhibition, 48 h
Activity calls are given as the source filed them. No stated cut-off is given here; in the data, active = GI50 up to about 1.1 µM and inactive = higher.
observation_type: GI50

The examples below pair each entry with its known result.
O=C(/C=C1/NC(=O)CS1)Nc1ccccc1 :: > 100 µM (inactive)
Cc1ccc(C)c(NC(=O)CCc2nnc(S)[nH]2)c1 :: > 100 µM (inactive)
O=C1NC(=S)NC(=O)C1=Cc1cc2c(cc1[N+](=O)[O-])OCO2 :: 63.1 µM (inactive)
COC(=O)CCC(NC(=S)N/N=C(\C)c1ccc[nH]1)C(=O)OC (centres undefined) :: > 100 µM (inactive)
CC(C(=O)N1C(=O)N(C(=O)C(C)C(O)c2ccccc2)C2CCCCC21)C(O)c1ccccc1 (centres undefined) :: > 100 µM (inactive)

Query string: Find the recorded GI50 belonging to CCCCCC(=O)OCCOCCOCCOCCOCCOCc1ccccc1 and report it.
Result string: > 100 µM (inactive)

Query string: Find the recorded GI50 belonging to NC(=S)N1N=C2c3ccccc3CC[C@H]2[C@@H]1c1ccc(Cl)cc1 and report it.
Result string: 24.7 µM (inactive)

====

# System: HCT-116
# experiment: NCI tumour cell line growth inhibition, 48 h
Calls of active or inactive are those of the source. Rule as the data show it: active = GI50 up to about 1.1 µM and inactive = higher.
The following molecules are shown together with reported GI50 values.

The examples below pair each entry with its known result.
O=c1[nH]nc(-c2ccccc2)n1/N=C/c1ccc([N+](=O)[O-])cc1 :: 25 µM (inactive)
O=C(Nc1ccc2ncccc2c1)Nc1ccc2ncccc2c1 :: > 100 µM (inactive)
Cc1ccsc1C(=S)Nc1ccc(Cl)c(/C=N/OC(C)C)c1 :: 27.4 µM (inactive)
CCOC(=O)C1=C(C(=O)OCC)C2c3ccccc3C=CN2C(C(=O)OCC)=C(SC)S1 (stereo not given) :: 50.7 µM (inactive)
CCOC(=O)c1c(N=P(c2ccccc2)(c2ccccc2)c2ccccc2)nnc(-c2ccccc2)c1-c1ccccc1 :: > 100 µM (inactive)

Query string: So what GI50 did CCCCCCCCCCCCOC1C(COCCN2CCCC2)OC2OC(C)(C)OC21 (stereo not given) get with HCT-116?
Result string: 1.75 µM (inactive)

Query string: So what GI50 did CC(C)=C=CP(=O)(O)c1ccccc1 get with HCT-116?
Result string: > 100 µM (inactive)

Query string: So what GI50 did N#C/C(=C\c1cc2ccccc2c2ccccc12)c1ccccc1 get with HCT-116?
Result string: 5.3 µM (inactive)

Query string: So what GI50 did CC(NC(=O)Cc1ccc(OP(=O)(OCc2ccc([N+](=O)[O-])o2)N(C)CCCCCl)cc1)c1ccc(OCC2CCCCC2)c(C(N)=O)c1 (stereo not given) get with HCT-116?
Result string: 1.85 µM (inactive)

Query string: So what GI50 did O=C(O)c1cc2ccccc2c(S(=O)(=O)O)c1O get with HCT-116?
Result string: > 100 µM (inactive)

====

# Tested on: DMS-273
# experiment: NCI tumour cell line growth inhibition, 48 h
Activity calls are given as the source filed them. Cut-off read from the data, not from the text of the source: active = GI50 up to about 1.1 µM and inactive = higher.
A correct response names exactly one class from Yes (active), No (inactive)

CCOC(=O)C(=O)Nc1c(C)cccc1C(C)C :: No
CC12Nc3ccccc3C1=C(c1ccccc1)CC1C(=O)OC(=O)C12 (stereo unspecified) :: No
COC(=O)/C(=N/NC(=O)C[N+](C)(C)C)C(C(=O)OC)C(=O)C(=O)Nc1ccc(F)cc1 (stereo unspecified) :: No
N#C/C(=C\c1cc2ccccc2c2ccccc12)c1ccccc1 :: No
COc1cc2c(OC)cc1CSCc1sc(C)c(c1Br)CSC2 :: No

Query string: Dear all, I need the recorded test outcome for COc1ccc(S(=O)(=O)NNS(C)(=O)=O)cc1 , thank you.
Result string: No

Query string: Dear all, I need the recorded test outcome for C[C@]12CC[C@H](O)C=C1CC[C@@H]1[C@@H]2CC[C@]2(C)C(c3ccc(=O)oc3)CC[C@]12O (stereo partly specified) , thank you.
Result string: Yes

====

# Tested on: UACC-62
# experiment: NCI tumour cell line growth inhibition, 48 h
Active and inactive are the calls of the source. No stated cut-off is given here; in the data, active = GI50 up to about 1.1 µM and inactive = higher.
The following molecules are shown together with reported GI50 values.

O=P1(c2ccccc2)C(c2ccccc2)=CC=C1c1ccccc1 :: 18.8 µM (inactive)
CN(C)CCNC(=O)c1ccccc1Nc1c(Cl)cccc1Cl :: 16.1 µM (inactive)
Cc1ccc(C)c(NC(=O)C(=O)C2C(=O)N(c3ccccc3)N=C2N)c1 (stereo unspecified) :: > 100 µM (inactive)
COc1cc2c(oc(=O)c3c4occc4cc(OC)c23)c2cccc(OCc3ccccc3)c12 :: 86.1 µM (inactive)
Cc1ccccc1NC(=O)Cc1nc2ccccc2s1 :: 19.4 µM (inactive)

Continue with the next molecule.
Query string: So what GI50 did Cc1cc(=O)[nH]c(-n2[nH]c(C)c(CCO)c2=O)n1 get with UACC-62?
Result string: > 100 µM (inactive)

====

# System: SF-539
# experiment: NCI tumour cell line growth inhibition, 48 h
Counter-ions that a name gives are not always drawn. The source made the active and inactive calls. No stated cut-off is given here; in the data, active = GI50 up to about 1.1 µM and inactive = higher.
A correct response names exactly one class from class 1 = active, class 0 = inactive

CCN(CC)CCCNc1ncc(C)c2[nH]c3ccncc3c12 :: class 0
CCCCCCCCCCCC[N+](CCCCCCCCCCCC)=C1SCCS1 :: class 0
Cc1ccc(O)c(-c2cc(-c3cccc(Br)c3)on2)c1 :: class 0
COc1ccc(/C=C/C(=O)CC(=O)/C=C/c2ccc(OC)cc2)cc1 :: class 0
COc1ccc(/C=C2\CCC(CNc3ccc(S(N)(=O)=O)cc3)C2=O)cc1 (stereo not given) :: class 0
CCN(CC)CCNc1ccc(C)c2sc3ccccc3c(=O)c12 [LUCANTHONE HYDROCHLORIDE] :: class 0
COc1cc2c(cc1OC)C1c3ccccc3CCN1CCC2.[O-][Cl+3]([O-])([O-])O (stereo not given) :: class 0
O=C1C2=Nc3ccccc3C(O)(C(=O)O)N2c2ccccc21 (stereo not given) :: class 0

Query string: Dear all, I need the recorded test outcome for COc1ccc(COCC[C@H](C)OC2OC(CO)C(O)C(O)C2O)cc1 (stereo not given in full) , thank you.
Result string: class 0

Query string: Dear all, I need the recorded test outcome for C=C1C(=O)[C@]23[C@H](O)[C@H]1CC[C@H]2[C@@]12CO[C@@]3(O)C[C@@H]1C(C)(C)CC[C@@H]2O [MEGATHYRIN A] , thank you.
Result string: class 0

Query string: Dear all, I need the recorded test outcome for CCCCN[C@H]1C2C3CC4C5CC(C42)C1(C)C53 (stereo not given in full) , thank you.
Result string: class 0

Query string: Dear all, I need the recorded test outcome for C=CCn1c(=O)c(C)cn(COCCO)c1=O , thank you.
Result string: class 0

Query string: Dear all, I need the recorded test outcome for CCOC(=O)CC1(Cc2ccc(OCc3ccccc3)cc2)C(=O)OC(c2ccccc2)N1C(=O)c1ccccc1 (stereo not given) , thank you.
Result string: class 0

Query string: Dear all, I need the recorded test outcome for O=C1C(c2ccc(Br)cc2)=[N+]([O-])c2ccccc21 , thank you.
Result string: class 0

====

# System: IGROV-1
# experiment: NCI tumour cell line growth inhibition, 48 h
Activity calls are given as the source filed them. Cut-off read from the data, not from the text of the source: active = GI50 up to about 1.1 µM and inactive = higher.
The following molecules are shown together with reported GI50 values.

CCOC(=O)c1nc[nH]c1/N=N/N(C)N :: > 100 µM (inactive)
CCOC(=O)C1=C(C(=O)OCC)C2c3ccccc3C=CN2C(C(=O)OCC)=C(SC)S1 (stereo unspecified) :: > 100 µM (inactive)
O=C1NCC(NC(=O)C(F)(F)F)c2c(Br)sc(Br)c21 (stereo unspecified) :: > 100 µM (inactive)
O=C(N/N=C(/c1nc2ccc(Cl)cc2[nH]c1=O)C(O)c1ccc(Cl)cc1Cl)c1ccncc1 (stereo unspecified) :: > 100 µM (inactive)

Query string: Find the recorded GI50 belonging to Cc1ccc(S(=O)(=O)Nc2ccccc2C=O)cc1 and report it.
Result string: 17.4 µM (inactive)

Query string: Find the recorded GI50 belonging to COc1ccc(CC(=O)c2cc(OC)c(OC)cc2C)cc1OC and report it.
Result string: 14 µM (inactive)
